The following compounds are listed with their measured Average survival days (control) values.
Test system: Candida albicans KB-8
Test: Antifungal activity test (in vivo), Candida albicans infection in mice
Details: DDY male mice infected i.v. with 10^7 cells; oral, total dose 20 mg/kg at 0, 5, 24 and 48 hours after infection; 10 days observation; number in brackets is the non-medicated control

# compound, Average survival days (control)
rows = [
    ("CCC(C)(C)[S+]([O-])CC(O)(Cn1cncn1)c1ccc(Cl)cc1Cl (stereo not shown) [Compound No. 2A]", "9.7 (1.2) days"),
    ("CC(C)CC[S+]([O-])CC(O)(Cn1cncn1)c1ccc(Cl)cc1Cl (single isomer, unassigned) [3A]", "7.7 (1.2) days"),
    ("CCCCC[S+]([O-])CC(O)(Cn1cncn1)c1ccc(Cl)cc1Cl (single isomer, unassigned) [1A]", "9.0 (1.2) days"),
]

Turning now to a further compound:
Ask | Quick one: Average survival days (control) of CCC(CC)[S+]([O-])CC(O)(Cn1cncn1)c1ccc(Cl)cc1Cl (single isomer, unassigned) [5A] ?
Reply | 8.9 (1.2) days

----------
Assay: Acute toxicity
Details: mouse, in vivo; DDY male mice, oral, 0.5 % methylcellulose suspension, seven days after medication, Probit method
Listed next: entries and their corresponding LD50 at 168 h.
Give the value, in units of mg/kg, as a plain number.

# compound, unitAbbreviation, LD50 at 168 h
measured = [
    ("CS(=O)(=O)CC(O)(Cn1cncn1)c1ccc(Cl)cc1Cl (stereo not shown) [I, reference compound]", "mg/kg", 770),
]

Ask | Looking for the measured LD50 at 168 h of CCC(C)(C)[S+]([O-])CC(O)(Cn1cncn1)c1ccc(Cl)cc1Cl (stereo not shown) , can you help?
Reply | 1830

Ask | Try CC(=O)N1CCN(c2ccc(OCC3COC(Cn4ccnc4)(c4ccc(Cl)cc4Cl)O3)cc2)CC1 (stereo not shown) [Ketoconazole, reference compound] next.
Reply | 1100

Ask | Same again, this time with CCCCC[S+]([O-])CC(O)(Cn1cncn1)c1ccc(Cl)cc1Cl (single isomer, unassigned)
Reply | 1740

----------
Test: Acute toxicity
Settings: mouse, in vivo; DDY male mice, oral, 0.5 % methylcellulose suspension, seven days after medication, Probit method
Measured LD50 at 168 h of individual entries

Ask | What LD50 at 168 h value was documented for this compound, CC(C)CC[S+]([O-])CC(O)(Cn1cncn1)c1ccc(Cl)cc1Cl (single isomer, unassigned) [3A] ?
Reply | > 2000 mg/kg

Ask | Moving on to the next compound: CCCC(C)[S+]([O-])CC(O)(Cn1cncn1)c1ccc(Cl)cc1Cl (single isomer, unassigned) [4A]
Reply | > 1500 mg/kg

Ask | Try the compound CCC(CC)[S+]([O-])CC(O)(Cn1cncn1)c1ccc(Cl)cc1Cl (single isomer, unassigned) [5A]
Reply | > 2000 mg/kg
